assay: Apparent volume of distribution during terminal phase in healthy human at 6 mg/kg, iv administered as 30 mins infusion every 24 hrs measured on day 1; format: ADME, organism-based; set-up: dose 6 mg/kg, route intravenous; conditions: in vivo
MEASUREMENT NAME: Vd (L/kg)

smiles_structure=CCCCCCCCCC(=O)N[C@@H](Cc1c[nH]c2ccccc12)C(=O)N[C@H](CC(N)=O)C(=O)N[C@@H](CC(=O)O)C(=O)N[C@@H]1C(=O)NCC(=O)N[C@@H](CCCN)C(=O)N[C@@H](CC(=O)O)C(=O)N[C@H](C)C(=O)N[C@@H](CC(=O)O)C(=O)NCC(=O)N[C@H](CO)C(=O)N[C@@H]([C@H](C)CC(=O)O)C(=O)N[C@@H](CC(=O)c2ccccc2N)C(=O)O[C@@H]1C unit_of_measurement=L/kg result_value=0.096
